study-system: Bcl-2-like protein 1 (Homo sapiens) (UniProt Q07817)
Sequence (Q07817 whole entry, looked up): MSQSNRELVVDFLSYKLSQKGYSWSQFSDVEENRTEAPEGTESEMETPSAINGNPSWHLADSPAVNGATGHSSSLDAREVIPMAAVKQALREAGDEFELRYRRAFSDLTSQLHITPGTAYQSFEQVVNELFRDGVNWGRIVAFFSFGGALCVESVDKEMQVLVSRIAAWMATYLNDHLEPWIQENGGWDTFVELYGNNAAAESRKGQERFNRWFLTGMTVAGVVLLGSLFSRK
experiment-description: Bcl-xL/Bim BH3 interaction blockers – biochemical, fluorescence polarization, HTS, primary screen (AID 2129);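 also: 0% = DMSO wells and 100% = unlabeled Bim-BH3 peptide competitor; inhibitors lower millipolarization by displacing the labeled peptide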
test-context: GST-Bcl-xL / FITC-Bim BH3 peptide fluorescence polarization; at 10.9 µM; stronger effect = higher value
In all, about 320,000 compounds went through this assay and about 2,200 (0.69%) were called active. The full list was thinned out, with actives kept by preference.
parameter-measured: inhibition (%)
Provide only the numeric value, understood in %.

These recorded examples may help you get a feel for the data.
• C=CCN1C=C2C(=O)C(C)(OC(=O)CCc3ccccc3)C(=O)C=C2C=C1c1ccc(C#N)cc1 (centres undefined) = 26.4
• CC1(OC(=O)C2CCCC2)C(=O)C=C2C=C(c3ccc(C#N)cc3)OC=C2C1=O (centres undefined) = 10.6
• COc1ccccc1-n1cnc2cc(NS(=O)(=O)c3ccccc3)ccc21 = 2.73
• O=C(COC(=O)c1ccco1)NCc1ccc(Cl)cc1 = 3.7
• CC1(C)C=C2[C@H]3CC[C@@H]4[C@@]5(C)CCC(=O)C(C)(C)[C@@H]5CC[C@@]4(C)[C@]3(C)CC[C@@]2(C(=O)O)CC1 = 5.29

## Task Find the recorded inhibition belonging to CC1(OC(=O)CCc2ccccc2)C(=O)C=C2C=C(c3ccc(C#N)cc3)N(CCc3ccccn3)C=C2C1=O (centres undefined) and report it.
## Result 25.8

## Task Next up: CC(=O)CC[C@@H](C)O[C@@H]1OC(C)[C@H](O)CC1O (some centres undefined)
## Result 1.11

## Task How about this compound: NC(=O)COC(=O)c1ccc2c(c1)C(=O)N(Cc1ccco1)C2=O
## Result 4.63

## Task Same read-out for O=C(Nc1ccccc1C(=O)NCCCn1ccnc1)c1ccc(Cl)cc1Cl ?
## Result 9.41

====

inhibition values, listed per item
study-system: Bcl-2-like protein 1 (Homo sapiens) (UniProt Q07817)
experiment-description: Bcl-xL/Bim BH3 interaction blockers – biochemical, fluorescence polarization, HTS, primary screen (AID 2129)
test-context: GST-Bcl-xL / FITC-Bim BH3 peptide fluorescence polarization; at 10.9 µM; stronger effect = higher value
About 2,200 (0.69%) of roughly 320,000 compounds were called active. This excerpt belongs to a sample that is enriched for actives.
The answer is to be given in %; state only the numeric part.

- C[n+]1ccccc1C1CCCC/C1=N\Nc1ccc([N+](=O)[O-])cc1[N+](=O)[O-] (centres undefined): -14.1
- COc1cc(OC)cc(-c2c(-c3cccs3)c3cc(-c4ccc(OC)cc4F)ccc3n2C)c1: -0.84
- Cc1ccc(SCC(=O)c2cc(C)c(OC(=S)N(C)C)c(C)c2)cc1: -0.01
- CN(C)[C@@H]1C(=O)C(C(N)=O)=C(O)[C@@]2(O)C(=O)C3=C(O)c4c(O)ccc(Cl)c4[C@@H](O)[C@H]3C[C@@H]12: 15.2
- N#Cc1c(-c2ccccc2)cc(-c2ccccc2)nc1SCC(=O)O: 6.81
- Cc1ccc(NS(=O)(=O)c2ccc3c(c2)NC(=O)CO3)cc1: 0.04
- CCCCCCNS(=O)(=O)c1ccccc1Br: -2.11
- CC(C)(C)c1ccc(C(CC(=O)O)NS(=O)(=O)Cc2ccccc2)cc1 (centres undefined): -2.32

Please find the next compound below.
## Task Entry C=C1c2c(Cl)ccc(O)c2C(O)=C2C(=O)[C@]3(O)C(O)=C(C(N)=O)C(=O)[C@@H](N(C)C)[C@@H]3[C@@H](O)C12 (some centres undefined) has what inhibition?
## Result 31.6

====

study-system: Bcl-2-like protein 1 (Homo sapiens) (UniProt Q07817)
experiment-description: Bcl-xL/Bim BH3 interaction blockers – biochemical, fluorescence polarization, HTS, primary screen (AID 2129)
test-context: GST-Bcl-xL / FITC-Bim BH3 peptide fluorescence polarization; at 10.9 µM; stronger effect = higher value
About 2,200 (0.69%) of roughly 320,000 compounds were called active. The full list was thinned out, with actives kept by preference.
parameter-measured: inhibition (%)
Express it in %; write the number only.

- [O-][n+]1c2c(nn1-c1ccc(Cl)c(Cl)c1)-c1nonc1CC2: -0.16

## Task // returns reported inhibition for input COc1ccc(CCNC(=O)COC(=O)c2cc(=O)c3ccccc3o2)cc1
## Result -7.08

## Task Also CN(C)S(=O)(=O)c1ccc(Cl)c(NC(=O)COC(=O)CC(NC(N)=O)c2ccc(Cl)cc2)c1 (centres undefined) , if possible.
## Result -5.65

## Task Same lookup for Nc1cccc2c1C(=O)N(Cc1nnc(-c3ccccc3Br)o1)C2=O , please.
## Result 48

## Task Subsequent entry: CCOCC(=O)NCc1ccc2c(c1)cc(C)n2C
## Result 19.5

## Task CN(C)CCCCCN(C)Cc1cc2ccccc2o1 , same question.
## Result 0.68

====

study-system: Bcl-2-like protein 1 (Homo sapiens) (UniProt Q07817)
experiment-description: Bcl-xL/Bim BH3 interaction blockers – biochemical, fluorescence polarization, HTS, primary screen (AID 2129);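 also: 0% = DMSO wells and 100% = unlabeled Bim-BH3 peptide competitor; inhibitors lower millipolarization by displacing the labeled peptide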
test-context: GST-Bcl-xL / FITC-Bim BH3 peptide fluorescence polarization; at 10.9 µM; stronger effect = higher value
About 2,200 (0.69%) of roughly 320,000 compounds were called active. The sample holds actives, similar compounds and a random draw of the others, so the mix is not that of the screen.
parameter-measured: inhibition (%)
Give just the numeric value; % need not be written.

Illustrative cases are given below, each with its answer.
- COc1ccc(C(=O)NCCNc2ccc([N+](=O)[O-])cn2)cc1: -0.8
- O=c1cc(CO)oc(C(Nc2cccc([N+](=O)[O-])c2)c2ccccn2)c1O (configuration not stated): 13.9
- COC(=O)c1sc(NC(=S)NC(=O)c2ccc(C)cc2)nc1C: 90.6
- FC(F)(F)c1cccc(Nc2ncnc3ccccc23)c1: -2.73
- O=C1c2ccccc2C(=O)c2c1cccc2N1CCN(Cc2ccccc2)CC1: 7.24
- C/C(=N\Nc1ncc(Cl)cc1Cl)c1ccc(S(=O)(=O)NCc2ccco2)cc1: 3.34
- O=C1c2ccccc2C(=O)c2c1cccc2N1CCN(C/C=C/c2ccccc2)CC1: 20.9
- O=C(C1CC(=O)N(C2CCCCC2)C1)N1CCN(c2ccccc2)CC1 (configuration not stated): 3.83
- Cc1ccc(NC(=S)NC(=O)c2ccc(-c3ccccc3)cc2)cc1: 1.62
- COc1ccccc1C1CCN(c2ccc([N+](=O)[O-])cn2)CC1: 6.64

Attention now shifts to the item below.
## Task Suppose we examine the compound C/C(=N\NC(=O)c1ccoc1C)c1ccccc1O ; what inhibition value has been reported?
## Result 4.04

====

study-system: Bcl-2-like protein 1 (Homo sapiens)
experiment-description: Bcl-xL/Bim BH3 interaction blockers – biochemical, fluorescence polarization, HTS, primary screen (AID 2129);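 also: 0% = DMSO wells and 100% = unlabeled Bim-BH3 peptide competitor; inhibitors lower millipolarization by displacing the labeled peptide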
test-context: GST-Bcl-xL / FITC-Bim BH3 peptide fluorescence polarization; at 10.9 µM; stronger effect = higher value
Screen size: about 320,000 compounds; about 2,200 (0.69%) were called active. For the sample, actives were picked, then their nearest neighbours and some compounds at random.
parameter-measured: inhibition (%)
Supply the numeric figure in %, leaving out any unit text.

Examples with their reported inhibition follow.
* Cc1c(CCO)c(=O)n(-c2ccccc2)n1S(=O)(=O)c1ccc(F)cc1 | 9.16
* COc1ccc(CNC(=O)c2cc3c(=O)n4ccccc4nc3n(CC3CCCO3)c2=N)cc1 (configuration not stated) | 8.61

## Task May I ask what inhibition has been recorded for C/C(Cl)=C\Cn1c(Nc2cccc(C)c2)nc2c1c(=O)n(C)c(=O)n2C ?
## Result 3.4

## Task Same for CCN1C(=O)[C@@H]2[C@@H](c3ccc(-c4ccc(OC)cc4)c(OC)c3)N3CCC[C@@]3(C(=O)OC)[C@@H]2C1=O
## Result 4.65

## Task What do you get for COC(=O)Cc1cc(=O)oc2c(C)c(O)ccc12 ?
## Result 4.68

## Task Queued: Cc1cc([N+](=O)[O-])ccc1NCc1cccc([N+](=O)[O-])c1
## Result 3.28

## Task Would you mind doing CSc1ccc(CN2C(=O)NC3(CCCCCC3)C2=O)cc1 as well?
## Result 0.37

## Task Proceed to Cc1cc(S(=O)(=O)c2cc3ccc(O)c(C)c3oc2=O)ccc1F
## Result 40.6

## Task Next record, please: O=C(O)c1ccccc1CSc1nc2ccccc2s1
## Result 15.6

## Task Now give it for CC(OC(=O)c1ccc2noc(-c3ccccc3)c2c1)C(N)=O (configuration not stated) too.
## Result 2.5

## Task Same read-out for Oc1ccc(-c2onc3ccc(Cl)cc23)cc1 ?
## Result 3.11

====

study-system: Bcl-2-like protein 1 (Homo sapiens) (UniProt Q07817)
experiment-description: Bcl-xL/Bim BH3 interaction blockers – biochemical, fluorescence polarization, HTS, primary screen (AID 2129);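 also: 0% = DMSO wells and 100% = unlabeled Bim-BH3 peptide competitor; inhibitors lower millipolarization by displacing the labeled peptide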
test-context: GST-Bcl-xL / FITC-Bim BH3 peptide fluorescence polarization; at 10.9 µM
The campaign covered roughly 320,000 compounds. About 2,200 (0.69%) were called active.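 Rule for the calls: active = inhibition above the mean of all tested compounds plus 3 SD, cutoff set per campaign (cut at about 30% in these data); inactive = the rest.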 The entries come from a sample that favours actives as a whole.
Reply using exactly one outcome from active, inactive

Some solved cases for reference:
• C1=C(N2CCOCC2)/C(=C/c2nc3ccccc3[nH]2)CC1 = active
• COc1ccccc1CCNC(=O)c1c(C)nn(CC(C)C)c1Cl = inactive
• COc1cc([C@H](Cc2ccccc2)NC(C)=O)oc(=O)c1 = active
• O=C(NCCc1ccccc1)C1CCN(S(=O)(=O)c2ccc(Br)s2)CC1 = inactive
• O=C(COC(=O)c1ccccc1C(=O)N1CCN(c2ccccc2)CC1)NCc1ccccc1 = active

## Task Record lookup: outcome of this test for COc1ccc(NC(=O)c2sccc2SCC#N)cc1 ?
## Result inactive

## Task Input O=S(=O)([N-]c1nc2ccccc2nc1-[n+]1ccc(Cc2ccccc2)cc1)c1ccc(Br)s1
## Result active

## Task COc1cc(SC)ccc1C(=O)Nc1cc(C)ccn1 ?
## Result inactive

## Task Next up: CCOC(=O)c1c(C)n(C)c2ccc(OC)c(NC(=O)CN3CCC4(CC3)OCCO4)c12
## Result inactive

## Task What do you get for CCOC(=O)N1CCN(CC(=O)n2c(C)c(C)c3ccccc32)CC1 ?
## Result inactive

## Task Then this molecule: Cc1cc2occ(CC(=O)NNC(=O)c3ccccc3F)c2cc1C
## Result inactive

## Task For CCOc1cc(/C=C/C(=O)OCC(=O)NCCN2C(=O)CSC2=O)ccc1OCC(C)C then?
## Result inactive

## Task And the next one, Cn1c2c(c(=O)n(C)c1=O)C1c3ccccc3OCC1C(C)(C)O2 (stereo unspecified) ?
## Result inactive

## Task And then Cc1cc(C)c[n+](-c2nc3ccccc3nc2[N-]S(=O)(=O)c2cccs2)c1 , what is it?
## Result inactive

## Task Next molecule: Cc1ccc(S(=O)(=O)CC(=O)NC(C)c2ccccc2)cc1 (stereo unspecified)
## Result inactive

## Task Then this molecule: O=c1[nH]c(N2CCOCC2)nc2ccccc12
## Result inactive

## Task Try this molecule next: O=C(Cc1nc2ccccc2[nH]c1=O)c1ccc(Cl)cc1
## Result active

## Task Next molecule: O=C(/C(=C/c1cccc(Cl)c1)c1nc2ccccc2[nH]1)c1ccccc1
## Result inactive

## Task Record: Cc1coc2c(O)cc3c(c12)OC1(N2CCCCC2)C(=O)NCCCC31 (stereo unspecified)
## Result active

## Task Next entry: COC(=O)[C@H](Cc1ccccc1)NC(=O)Nc1ccc(OC)cc1
## Result inactive

## Task What do we get for COc1ncnc2c1N=C1CC(C)(C)CC(N)=C1S2 ?
## Result active
